Below are IC50 values measured for UniProtKB P22303.
Sequence (P22303 whole entry): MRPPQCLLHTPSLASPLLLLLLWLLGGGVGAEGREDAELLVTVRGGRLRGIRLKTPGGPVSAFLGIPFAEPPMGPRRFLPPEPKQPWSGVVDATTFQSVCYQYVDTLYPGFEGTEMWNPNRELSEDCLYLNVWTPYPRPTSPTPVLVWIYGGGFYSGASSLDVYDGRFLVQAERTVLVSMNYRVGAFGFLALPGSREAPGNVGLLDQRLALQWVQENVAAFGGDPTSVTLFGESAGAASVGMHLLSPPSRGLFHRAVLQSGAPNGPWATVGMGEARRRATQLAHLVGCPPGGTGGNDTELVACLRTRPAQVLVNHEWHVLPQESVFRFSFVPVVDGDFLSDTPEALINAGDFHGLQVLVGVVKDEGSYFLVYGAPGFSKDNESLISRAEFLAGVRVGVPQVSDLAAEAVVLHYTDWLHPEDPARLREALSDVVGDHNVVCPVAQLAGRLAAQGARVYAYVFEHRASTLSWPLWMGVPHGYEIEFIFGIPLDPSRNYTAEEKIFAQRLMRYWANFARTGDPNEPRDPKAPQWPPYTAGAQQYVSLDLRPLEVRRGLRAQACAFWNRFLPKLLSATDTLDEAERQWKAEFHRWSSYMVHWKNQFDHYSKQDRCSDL
metric: IC50 (µM)

COc1cc(/C=C/C(=O)Nc2ccccc2)ccc1OCCCCN1CCCC1; 24.4
CCN(CC)CCCCOc1ccc(/C=C/C(=O)Nc2ccccc2)cc1OC; 41.6
COc1cc(/C=C/C(=O)Nc2ccccc2)ccc1OCCCCCCCCCCN(C)C; 9.93
COc1cc(/C=C/C(=O)Nc2ccccc2)ccc1OCCN1CCCCC1; 19.4
COc1cc(/C=C/C(=O)Nc2ccccc2)ccc1OCCCCCCN1CCCC1; 1.11
COc1cc(/C=C/C(=O)O)ccc1OCCCCCCN1CCCCC1; 45.6
CCOC(=O)/C=C/c1ccc(OCCCCCCCCN(CC)CC)c(OC)c1; 1.56
COc1cc(/C=C/C(=O)Nc2ccccc2)ccc1OCCCCCN1CCCCC1; 4.8
CCN(CC)CCCCCCOc1ccc(/C=C/C(=O)Nc2ccccc2)cc1OC; 1.83
COc1cc(/C=C/C(=O)Nc2ccccc2)ccc1OCCCCN(C)C; 100
COc1cc(/C=C/C(=O)O)ccc1OCCCCCCN1CCCC1; 69.9

* * *

# Organism: Homo sapiens
# test description: Selectivity index, ratio of IC50 for butyrylcholinesterase (unknown origin) to IC50 for acetylcholinesterase (unknown origin)
Please note: TRUE applies when Ratio IC50 is 0.8 or greater, and FALSE applies otherwise.

CCN(CC)CCCCCOc1ccc(/C=C/C(=O)Nc2ccccc2)cc1OC; TRUE
COc1cc(/C=C/C(=O)Nc2ccccc2)ccc1OCCCN1CCCCC1; FALSE
CCN(CC)CCCCCCOc1ccc(/C=C/C(=O)O)cc1OC; TRUE
CCOC(=O)/C=C/c1ccc(OCCCCCCCCN(CC)CC)c(OC)c1; TRUE
COc1cc(/C=C/C(=O)Nc2ccccc2)ccc1OCCCCCN(C)C; FALSE
CCOC(=O)/C=C/c1ccc(OCCCCCCN(CC)CC)c(OC)c1; TRUE
COc1cc(/C=C/C(=O)Nc2ccccc2)ccc1OCCCCCCCCCCN1CCCCC1; FALSE
COc1cc(/C=C/C(=O)Nc2ccccc2)ccc1OCCCN1CCCC1; FALSE
COc1cc(/C=C/C(=O)Nc2ccccc2)ccc1OCCCCCN1CCCC1; FALSE
COc1cc(/C=C/C(=O)Nc2ccccc2)ccc1OCCN1CCCC1; FALSE
CCN(CC)CCOc1ccc(/C=C/C(=O)Nc2ccccc2)cc1OC; FALSE
COc1cc(/C=C/C(=O)Nc2ccccc2)ccc1OCCCCCCN1CCCC1; TRUE

* * *

# tested target: Cholinesterase (Homo sapiens, UniProt P06276)
# Sequence (P06276 whole entry): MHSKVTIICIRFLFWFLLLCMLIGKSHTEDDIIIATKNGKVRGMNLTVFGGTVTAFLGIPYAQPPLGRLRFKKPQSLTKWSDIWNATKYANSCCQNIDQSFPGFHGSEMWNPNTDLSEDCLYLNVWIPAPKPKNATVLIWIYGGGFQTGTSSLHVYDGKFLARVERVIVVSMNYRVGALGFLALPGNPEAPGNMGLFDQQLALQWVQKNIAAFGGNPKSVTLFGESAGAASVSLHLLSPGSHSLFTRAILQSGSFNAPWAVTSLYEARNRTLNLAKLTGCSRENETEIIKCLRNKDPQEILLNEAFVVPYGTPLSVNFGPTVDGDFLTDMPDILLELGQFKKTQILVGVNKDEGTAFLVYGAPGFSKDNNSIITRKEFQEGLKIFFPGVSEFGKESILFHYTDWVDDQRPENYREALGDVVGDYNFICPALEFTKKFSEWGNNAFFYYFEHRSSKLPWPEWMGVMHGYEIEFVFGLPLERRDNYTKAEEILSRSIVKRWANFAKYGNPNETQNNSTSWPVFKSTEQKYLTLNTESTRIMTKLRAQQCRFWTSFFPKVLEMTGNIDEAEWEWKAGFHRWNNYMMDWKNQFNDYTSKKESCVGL
metric: IC50

COc1cc(/C=C/C(=O)Nc2ccccc2)ccc1OCCCCCCN1CCCC1; 2.23 µM
COc1cc(/C=C/C(=O)Nc2ccccc2)ccc1OCCN1CCCCC1; 2.34 µM
CCN(CC)CCCCCCOc1ccc(/C=C/C(=O)O)cc1OC; 263 µM
COc1cc(/C=C/C(=O)Nc2ccccc2)ccc1O; > 500 µM
CCOC(=O)/C=C/c1ccc(OCCCCCCCCN(CC)CC)c(OC)c1; 13 µM
CCN(CC)CCCCCCCCOc1ccc(/C=C/C(=O)Nc2ccccc2)cc1OC; 3.98 µM
CCN(CC)CCCCOc1ccc(/C=C/C(=O)Nc2ccccc2)cc1OC; 25.1 µM
COc1cc(/C=C/C(=O)Nc2ccccc2)ccc1OCCCCN1CCCC1; 3.83 µM
CCN(CC)CCCOc1ccc(/C=C/C(=O)Nc2ccccc2)cc1OC; 16.9 µM
COc1cc(/C=C/C(=O)Nc2ccccc2)ccc1OCCCCN1CCCCC1; 5.69 µM
CCN(CC)CCOc1ccc(/C=C/C(=O)Nc2ccccc2)cc1OC; 11.5 µM
